A collection of compounds and their measured IC50
Target: Jak2 (a.a. 828-1132) (Homo sapiens (Human), UniProt O60674)
Sequence (O60674 828-1132): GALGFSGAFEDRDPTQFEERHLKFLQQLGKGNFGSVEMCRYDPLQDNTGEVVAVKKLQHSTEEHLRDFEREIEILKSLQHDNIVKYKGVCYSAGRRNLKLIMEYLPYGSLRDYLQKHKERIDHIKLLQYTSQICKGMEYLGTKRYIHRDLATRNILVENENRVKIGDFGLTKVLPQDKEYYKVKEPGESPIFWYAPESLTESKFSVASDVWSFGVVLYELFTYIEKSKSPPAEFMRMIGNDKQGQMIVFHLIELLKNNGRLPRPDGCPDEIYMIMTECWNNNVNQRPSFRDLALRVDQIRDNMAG

# compound, result
measured = [
    ("Cc1ccccc1NC(=O)N1CCC(N2CC(CC#N)(n3cc(-c4ncnc5[nH]ccc45)cn3)C2)CC1 [Example 185]", "0.01 to 0.05 µM"),
    ("Cc1cc(C(=O)N2CCC(N3CC(CC#N)(n4cc(-c5ncnc6[nH]ccc56)cn4)C3)CC2)cs1 [Example 73]", "≤ 0.01 µM"),
    ("N#CCC1(n2cc(-c3c(F)cnc4[nH]ccc34)cn2)CN(C2CCN(C(=O)c3ccc(O)c(F)c3)CC2)C1 [Example 322]", "≤ 0.01 µM"),
    ("N#CCC1(n2ccc(-c3ncnc4[nH]ccc34)c2)CN(C2CCN(C(=O)c3cnc(C(F)(F)F)cn3)CC2)C1 [Example 347]", "0.01 to 0.05 µM"),
]

INPUT: Consider the compound shown here: N#CCC1(n2cc(-c3ncnc4[nH]ccc34)cn2)CN(C2CCN(Cc3cccc(Cl)c3Cl)CC2)C1 [Example 219] What is its recorded IC50?
OUTPUT: 0.01 to 0.05 µM

INPUT: Consider the compound shown here: N#CCC1(n2cc(-c3ncnc4[nH]ccc34)cn2)CN(C2CC3CCC(C2)N3C(=O)c2ccnc(C(F)(F)F)c2F)C1 (centres unmarked) [Example 142] What is its recorded IC50?
OUTPUT: ≤ 0.01 µM

INPUT: Consider the compound shown here: COC(=O)c1ccccc1NC(=O)N1CCC(N2CC(CC#N)(n3cc(-c4ncnc5[nH]ccc45)cn3)C2)CC1 [Example 206] What is its recorded IC50?
OUTPUT: ≤ 0.01 µM

----------
Jak2 (a.a. 828-1132) (Homo sapiens (Human), UniProt O60674) data, read-out pIC50
pIC50: −log10 of the molar value.

Field: example entries. Status: answers known.
# molecule, assay.system, pIC50
records = [
    ("N#CCC1(n2cc(-c3ncnc4[nH]ccc34)cn2)CN(C2CCN(C(=O)c3ccc(F)c(F)c3)CC2)C1", "Jak2 (a.a. 828-1132) (Homo sapiens (Human), UniProt O60674)", "7.30 to 8.00"),
    ("N#CCC1(n2cc(-c3ncnc4[nH]ccc34)cn2)CN(C2CCN(C(=O)c3ccc(-c4ccncc4)c(F)c3)CC2)C1", "Jak2 (a.a. 828-1132) (Homo sapiens (Human), UniProt O60674)", "7.30 to 8.00"),
    ("N#CCC1(n2cc(-c3ncnc4[nH]ccc34)cn2)CN(C2CCN(C(=O)c3ccc(F)c(F)c3F)CC2)C1", "Jak2 (a.a. 828-1132) (Homo sapiens (Human), UniProt O60674)", "7.30 to 8.00"),
    ("N#CCC1(n2cc(-c3ncnc4[nH]ccc34)cn2)CN(C2CCN(C(=O)c3ccccc3F)CC2)C1", "Jak2 (a.a. 828-1132) (Homo sapiens (Human), UniProt O60674)", "≥ 8.00"),
    ("CC(C)NC(=O)N1CCC(N2CC(CC#N)(n3cc(-c4ncnc5[nH]ccc45)cn3)C2)CC1", "Jak2 (a.a. 828-1132) (Homo sapiens (Human), UniProt O60674)", "7.30 to 8.00"),
    ("COc1ccccc1NC(=O)N1CCC(N2CC(CC#N)(n3cc(-c4ncnc5[nH]ccc45)cn3)C2)CC1", "Jak2 (a.a. 828-1132) (Homo sapiens (Human), UniProt O60674)", "7.30 to 8.00"),
]

INPUT: Consider the molecule shown here: N#CCC1(n2cc(-c3ncnc4[nH]ccc34)cn2)CN(C2CCN(C(=O)c3c(F)cccc3C(F)(F)F)CC2)C1 What is its recorded pIC50?
OUTPUT: 7.30 to 8.00

INPUT: Consider the molecule shown here: N#CCC1(n2ccc(-c3ncnc4[nH]ccc34)c2)CN(C2CCN(C(=O)c3ccc(C(F)(F)F)c(F)c3)CC2)C1 What is its recorded pIC50?
OUTPUT: 7.00 to 7.30
